molecular target: HLA-DRB1*01:01 (Homo sapiens, UniProt P01903+P01911, A100R/D57E/F55L/F60I/F76Y/I96L/L162R/M171V/P40L/Q125E/R42F/V115G/Y59C); construct: EBV transformed homozygous cell lines were used as sources of MHC molecules; endogenous in cells; host or cells: EBV transformed homozygous cell lines; test: HLA class II peptide binding, inhibition of radiolabeled peptide binding to purified MHC; conditions: wild-type (unmodified Arg) 15-mer peptide; purified HLA-DRB1*01:01; read-out: DRB1*01:01 binding capacity, WT peptide (IC50 nM)
Ends that are not written are not given here.
Binary label based on IC50 with cut-off 1000 nM: below gives condition met, not below gives condition not met.

ERGFPGLPGPSGEPG [Collagen 991 WT] : condition not met
PGLRGLPGKDGETGA [Collagen 626 WT] : condition met
MARHLREYQDLLNVK [Vimentin 376 WT] : condition met
TNESLERQMREMEEN [Vimentin 336 WT] : condition not met
QDGQRYNDKDVWKPE [Collagen 36 WT] : condition not met
RQVQSLTCEVDALKG [Vimentin 321 WT] : condition not met
KAGEKGLPGAPGLRG [Collagen 616 WT] : condition met
DGPKGARGDSGPPGR [Collagen 926 WT] : condition not met
LPLVDTHSKRTLLIK [Vimentin 431 WT] : condition met
GPTGVTGPKGARGAQ [Collagen 876 WT] : condition met

is_below(IC50, 1000 nM) for QGPRGLPGTPGTDGP [Collagen 716 WT] ?
condition not met

is_below(IC50, 1000 nM) for SAFAGLGPREKGPDP [Collagen 1221 WT] ?
condition met

is_below(IC50, 1000 nM) for DRGDVGEKGPEGAPG [Collagen 766 WT] ?
condition met
